Data provenance: patent US20240376097A1

biological target: recombinant human Bcl-2-G101V protein (Homo sapiens (Human), UniProt P10415, G101V); test: Bcl-2-G101V TR-FRET Assay; assay type: binding; details: Bcl-2 G101V mutant, TR-FRET; read-out: Biochemical assay (IC50, nM) Bcl-2 G101V
Reported values of IC50 for individual entries
Write down the numeric answer in nM and omit the unit.

# annotated cases, reported IC50 shown
COc1ccc(CN2CCN(C3CC4(CCN(c5ccc(C(=O)NS(=O)(=O)c6ccc(NC[C@H]7CC[C@](C)(O)CC7)c([N+](=O)[O-])c6)c(Oc6cnc7[nH]ccc7c6)c5)CC4)C3)C(c3ccccc3C(C)C)C2)c2c1OCCO2 (stereo partly shown) : 0.17
CC(C)c1ccccc1C1CN(CC23CC(C2)C3)CCN1C1CC2(CCN(c3ccc(C(=O)NS(=O)(=O)c4ccc(NC[C@H]5CC[C@](C)(O)CC5)c([N+](=O)[O-])c4)c(Oc4cnc5[nH]ccc5c4)c3)CC2)C1 (stereo partly shown) : 0.71
CCOc1cc(CN2CCN(C3CC4(CCN(c5ccc(C(=O)NS(=O)(=O)c6ccc(NC[C@H]7CC[C@](C)(O)CC7)c([N+](=O)[O-])c6)c(Oc6cnc7[nH]ccc7c6)c5)CC4)C3)C(c3ccccc3C(C)C)C2)ccc1OC (stereo partly shown) : 0.51

Continue with the next compound.
Task: Please look at this compound and report its IC50: "COc1ccc(CN2CCN(C3CC4(C3)CN(c3ccc(C(=O)NS(=O)(=O)c5ccc(NC[C@H]6CC[C@](C)(O)CC6)c([N+](=O)[O-])c5)c(Oc5cnc6[nH]ccc6c5)c3)C4)[C@H](c3ccccc3C(C)C)C2)cn1"
Output: 0.067

###

test system: RS4;11 (BCL-2 dependent acute lymphoblastic leukemia cell line); assay: RS4;11 Cell Proliferation Assay; format: cell-based; settings: Homo sapiens, RS4-11, RS4;11 cells, read-out: Cellular proliferation assay (IC50, nM) RS4
Reported values of IC50 for individual entries

# annotated cases, reported IC50 shown
COc1ccc(CN2CCN(C3CC4(CCN(c5ccc(C(=O)NS(=O)(=O)c6ccc(NC[C@H]7CC[C@](C)(O)CC7)c([N+](=O)[O-])c6)c(Oc6cnc7[nH]ccc7c6)c5)CC4)C3)C(c3ccccc3C(C)C)C2)cc1C(C)=O (stereo partly shown) [Example 212] : 0.3 nM
COc1ccc(CN2CCN(C3CC4(CCN(c5ccc(C(=O)NS(=O)(=O)c6ccc(NC[C@H]7CC[C@](C)(O)CC7)c([N+](=O)[O-])c6)c(Oc6cnc7[nH]ccc7c6)c5)CC4)C3)C(c3ccccc3C(C)C)C2)cc1OC(F)F (stereo partly shown) [Example 169] : 0.49 nM
COc1ccc(CN2CCN(C3CC4(CCN(c5ccc(C(=O)NS(=O)(=O)c6ccc(NC[C@H]7CC[C@](C)(O)CC7)c([N+](=O)[O-])c6)c(Oc6cnc7[nH]ccc7c6)c5)CC4)C3)[C@H](c3ccccc3C(C)C)C2)c(OC)c1 (single isomer, unassigned) [Example 48a] : 0.16 nM
COc1ccc(CN2CCN(C3CC4(C3)CN(c3ccc(C(=O)NS(=O)(=O)c5ccc(NCC6CCOCC6)c([N+](=O)[O-])c5)c(Oc5cnc6[nH]ccc6c5)c3)C4)[C@H](c3ccccc3C(C)C)C2)cc1OC [Example 173] : 0.18 nM
CC(C)c1ccccc1[C@@H]1CN(Cc2ccc3c(c2)OCC3(C)C)CCN1C1CC2(CCN(c3ccc(C(=O)NS(=O)(=O)c4ccc(NC[C@H]5CC[C@](C)(O)CC5)c([N+](=O)[O-])c4)c(Oc4cnc5[nH]cc(F)c5c4)c3)CC2)C1 [Example 308] : 0.58 nM

Task: Please look at this compound and report its IC50: CC(C)c1ccccc1C1CN(C2CCOCC2)CCN1C1CC2(CCN(c3ccc(C(=O)NS(=O)(=O)c4ccc(NC[C@H]5CC[C@](C)(O)CC5)c([N+](=O)[O-])c4)c(Oc4cnc5[nH]ccc5c4)c3)CC2)C1 (stereo partly shown) [Example 10]
Output: 0.42 nM

Task: Please look at this compound and report its IC50: COc1cc(CN2CCN(C3CC4(CCN(c5ccc(C(=O)NS(=O)(=O)c6ccc(NC[C@H]7CC[C@](C)(O)CC7)c([N+](=O)[O-])c6)c(Oc6cnc7[nH]ccc7c6)c5)CC4)C3)[C@H](c3ccccc3C(C)C)C2)ccc1F [Example 121a]
Output: 0.153 nM

Task: Please look at this compound and report its IC50: COc1cc(CN2CCN(C3CC4(CCN(c5ccc(C(=O)NS(=O)(=O)c6ccc(NC[C@H]7CC[C@](C)(O)CC7)c([N+](=O)[O-])c6)c(Oc6cnc7[nH]ccc7c6)c5)CC4)C3)C(c3ccccc3C(C)C)C2)ccc1Cl (stereo partly shown) [Example 126]
Output: 0.18 nM

Task: Please look at this compound and report its IC50: COc1cc(CN2CCN(C3CC4(CCN(c5ccc(C(=O)NS(=O)(=O)c6ccc(NC[C@H]7CC[C@](C)(O)CC7)c([N+](=O)[O-])c6)c(Oc6cnc7[nH]ccc7c6)c5)CC4)C3)[C@H](c3ccccc3C(C)C)C2)ccc1C [Example 260]
Output: 0.13 nM

Task: Please look at this compound and report its IC50: COc1cc(CN2CCN(C3CC4(CCN(c5ccc(C(=O)NS(=O)(=O)c6ccc(NC[C@H]7CC[C@](C)(O)CC7)c([N+](=O)[O-])c6)c(Oc6cnc7[nH]cc(F)c7c6)c5)CC4)C3)[C@H](c3ccccc3C(C)C)C2)ccc1C(F)F [Example 287]
Output: 0.16 nM

Task: Please look at this compound and report its IC50: COc1cc(CN2CCN(C3CC4(C3)CN(c3ccc(C(=O)NS(=O)(=O)c5ccc(NC[C@H]6CC[C@](C)(O)CC6)c([N+](=O)[O-])c5)c(Oc5cnc6[nH]cc(F)c6c5)c3)C4)[C@H](c3ccccc3C(C)C)C2)cc2c1OC(C)(C)CC2 [Example 337]
Output: 0.18 nM

Task: Please look at this compound and report its IC50: COC1C2CC3CCC(CN4CCN(C5CC6(C5)CN(c5ccc(C(=O)NS(=O)(=O)c7ccc(NC[C@H]8CC[C@](C)(O)CC8)c([N+](=O)[O-])c7)c(Oc7cnc8[nH]cc(F)c8c7)c5)C6)[C@H](c5ccccc5C(C)C)C4)(C2)CC31 (stereo partly shown) [Example 355]
Output: 0.2 nM

Task: Please look at this compound and report its IC50: COc1ccc(CN2CCN(C3CC4(C3)CN(c3ccc(C(=O)NS(=O)(=O)c5ccc(NC[C@H]6CC[C@](C)(O)CC6)c([N+](=O)[O-])c5)c(Oc5cnc6[nH]ccc6c5)c3)C4)C(c3ccccc3C(C)C)C2)cc1 (stereo partly shown) [Example 83]
Output: 0.27 nM

Task: Please look at this compound and report its IC50: CC(C)c1ccccc1C1CN(Cc2cccc3c2OC(C)(C)O3)CCN1C1CC2(CCN(c3ccc(C(=O)NS(=O)(=O)c4ccc(NC[C@H]5CC[C@](C)(O)CC5)c([N+](=O)[O-])c4)c(Oc4cnc5[nH]ccc5c4)c3)CC2)C1 (stereo partly shown) [Example 201]
Output: 0.74 nM

Task: Please look at this compound and report its IC50: COc1cc(CN2CCN(C3CC4(C3)CN(c3ccc(C(=O)NS(=O)(=O)c5ccc(NC[C@H]6CC[C@](C)(O)CC6)c([N+](=O)[O-])c5)c(Oc5cnc6[nH]ccc6c5)c3)C4)[C@H](c3ccccc3C(C)C)C2)cc(C)c1OC [Example 234]
Output: 0.09 nM

Task: Please look at this compound and report its IC50: CC(C)c1ccccc1C1CN(S(C)(=O)=O)CCN1C1CC2(CCN(c3ccc(C(=O)NS(=O)(=O)c4ccc(NC[C@H]5CC[C@](C)(O)CC5)c([N+](=O)[O-])c4)c(Oc4cnc5[nH]ccc5c4)c3)CC2)C1 (stereo partly shown) [Example 66]
Output: 0.6 nM

###

biological target: recombinant human Bcl-2-G101V protein (Homo sapiens (Human), UniProt P10415, G101V); assay: Bcl-2-G101V TR-FRET Assay; type: binding; conditions: Bcl-2 G101V mutant, TR-FRET; read-out: Biochemical assay (IC50, nM) Bcl-2 G101V
Reported values of IC50 for individual entries

# annotated cases, reported IC50 shown
CC(C)c1ccccc1C1CN(Cc2cccc3sccc23)CCN1C1CC2(CCN(c3ccc(C(=O)NS(=O)(=O)c4ccc(NC[C@H]5CC[C@](C)(O)CC5)c([N+](=O)[O-])c4)c(Oc4cnc5[nH]ccc5c4)c3)CC2)C1 (stereo partly shown) [Example 59] : 3 nM
COc1cc(CN2CCN(C3CC4(CCN(c5ccc(C(=O)NS(=O)(=O)c6ccc(NC[C@H]7CC[C@](C)(O)CC7)c([N+](=O)[O-])c6)c(Oc6cnc7[nH]ccc7c6)c5)CC4)C3)C(c3ccccc3C(C)C)C2)cc(Cl)c1OC (stereo partly shown) [Example 148] : 2 nM
COc1cc(CN2CCN(C3CC4(C3)CN(c3ccc(C(=O)NS(=O)(=O)c5ccc(NCC6CCOCC6)c([N+](=O)[O-])c5)c(Oc5cnc6[nH]cc(F)c6c5)c3)C4)[C@H](c3ccccc3C(C)C)C2)ccc1C1CC1 [Example 320] : 1.7 nM

Continue with the next compound.
Task: Please look at this compound and report its IC50: CC(C)c1ccccc1[C@H]1CN(C(C)C)CCN1C1CC2(CCN(c3ccc(C(=O)NS(=O)(=O)c4ccc(NC[C@H]5CC[C@](C)(O)CC5)c([N+](=O)[O-])c4)c(Oc4cnc5[nH]ccc5c4)c3)CC2)C1 (single isomer, unassigned) [Example 3a]
Output: 2.2 nM
